Assay: chemical genetic growth profiling, strain panel (AID 1159580);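 also: tested at 20 µM; growth read once vehicle control cultures reached saturation at 30 °C; 1 = growth at the plate median or of vehicle wells; lower values mean less growth of the strain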
Conditions: S. cerevisiae deletion strains, growth OD, locus YOR136W, strain idh2, stronger effect = lower value
About 2,000 (36%) of roughly 5,500 compounds were called active. Roughly 18% stayed inconclusive and do not appear here. The list shows a part of the results.
Give normalized growth for every item shown.

Input: Please look up its normalized growth: CN1CCC(=C2c3ccccc3Sc3ccccc32)CC1
Output: 1.04 (inactive)

Input: Item under review: CCOC(=O)C(=O)C1(C(=O)OCC)Oc2cc(OC)cc(OC)c2C(=O)C1c1ccccc1 (stereo not given) . Reported normalized growth?
Output: 0.962 (inactive)

Input: What value of measured normalized growth is listed for CC1(C)OC(=O)NC1=O ?
Output: 0.974 (inactive)

Input: Entry CN1CCC(=C2c3ccccc3CC(=O)c3sccc32)CC1 has what normalized growth?
Output: 1 (inactive)

Input: Consider the compound CC(N)CCCC(C)(C)O (stereo not given) and give its measured normalized growth.
Output: 0.991 (inactive)

Input: Name the reported normalized growth value associated with the compound CC(Oc1ccccc1)C(=O)N[C@@H]1C(=O)N2[C@@H]1SC(C)(C)[C@@H]2C(=O)O (stereo not given in full)
Output: 1.02 (inactive)

Input: Give the measured normalized growth of CCOC(=O)C1(O)Oc2cc(OC)cc(OC)c2C(=O)C1c1ccccc1 (stereo not given) .
Output: 0.981 (inactive)

Input: normalized growth lookup needed for CCN(CC)CCNC(=O)c1cc(Br)c(N)cc1OC , thanks.
Output: 0.977 (inactive)

Input: Fill in the blank: the reported normalized growth of C=C1C2CC[C@H]3[C@]4(C)C[C@H](OC5OC(CO)C(OS(=O)(=O)O)C(OS(=O)(=O)O)C5OC(=O)CC(C)C)C[C@@H](C(=O)O)[C@H]4CC[C@]3(C2)[C@H]1O (stereo not given in full) is ____.
Output: 0.988 (inactive)

Input: Which measured normalized growth value corresponds to COC1=CC(=O)C[C@@H](C)[C@]12Oc1c(Cl)c(OC)cc(OC)c1C2=O ?
Output: 1 (inactive)

====

Experiment: chemical genetic growth profiling, strain panel (AID 1159580);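 also: tested at 20 µM; growth read once vehicle control cultures reached saturation at 30 °C; 1 = growth at the plate median or of vehicle wells; lower values mean less growth of the strain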
Settings: S. cerevisiae deletion strains, growth OD, locus YHR079C, strain IRE1 (second series), stronger effect = lower value
Among all 5,500 compounds or so, about 2,000 (36%) were called active. Roughly 18% stayed inconclusive and do not appear here. Some of the results follow.
value.kind: normalized growth
Please state the value as a number alone, without comment.

Input: Would you kindly share the measured normalized growth for C=C1C([C@]2(C)C(CC(=O)OC)[C@@](C)(COC(C)=O)OC(=O)C[C@@H]2OC(C)=O)[C@@H](OC=O)[C@H](OC(=O)C(O)C(C)CC)[C@@]2(C)[C@H](c3ccoc3)CC(=O)C12O (some centres undefined) ?
Output: 1.02

Input: Requested field: normalized growth. Item: CC(=O)OCC(=O)[C@@]1(O)CCC2C3CCC4=CC(=O)CC[C@]4(C)C3C(=O)C[C@@]21C (some centres undefined)
Output: 1.03

Input: Fill in the blank: the reported normalized growth of CC(=O)c1c(O)c(C)c(O)c2c1oc1c(C(C)=O)c(O)c(C)c(O)c12 is ____.
Output: 0.953

Input: What does the record list as normalized growth for O=C(O)C1(O)C[C@@H](O)C(O)[C@H](O)C1 (some centres undefined) ?
Output: 1.01

Measured values drawn from PubChem BioAssay AID1159580 for this set.
